Field IC50: reported value for Autotaxin (Homo sapiens, UniProt Q13822); entries drawn from several documents.

{"COMPOUND": "Cc1c(Sc2cccc(C(=O)O)c2)c2ccc(Cl)c(F)c2n1CC(=O)Nc1ccccc1", "IC50": "500 to 3000 nM"}

Input line: Entry "O=C(c1ccc(-c2ccc(Cl)cc2)nc1)N1C[C@@H]2[C@H](C1)[C@H]1CN(C(=O)[C@@H]3CCc4[nH]nnc4C3)C[C@@H]21" , system Autotaxin (Homo sapiens, UniProt Q13822): what IC50 was measured?
Output line: 1 nM

Input line: Could you do the same for "CC(C)[C@@H](NC(=O)c1cc(OC(F)(F)F)ccc1F)C(=O)N1CCC(C)(NCc2ccc(S(C)(=O)=O)cc2)CC1" , please?
Output line: 10 to 100 nM

Input line: Could you do the same for "Cc1c(Sc2cccc(C(=O)O)c2F)c2ccc(Cl)c(F)c2n1CCN1CC2(CCC2)c2ccccc21" , please?
Output line: ≤ 500 nM

Input line: Could you do the same for "C[C@H]1CN(CC(=O)N2CCCC2)C(=O)c2cc(-c3ccc(Cl)cc3)nn21" , please?
Output line: ≥ 1000 nM

----------
pIC50: −log10 of the molar value.
Field pIC50: reported value for Autotaxin (Homo sapiens, UniProt Q13822); entries drawn from several documents.
ENDPOINT: pIC50

A = C[C@]12CN(C(=O)OCc3ccc(OC(F)(F)F)cc3)C[C@@H]1CN(C(=O)c1ccc(S(N)(=O)=O)cc1)C2
B = O=C(c1cc(OCC2CCCOC2)nc(C2CC2)c1)N1C[C@@H]2CN(C(=O)c3ccc4[nH]nnc4c3)C[C@H]2C1 (stereo partly shown)
Input line: Pick one: A or B . Which one has the lower reported pIC50? Give the label under which the chosen entry appears.
Output line: B

P = COc1ccc(COC(=O)N2CCc3cc(C(=O)N4CCc5[nH]nnc5C4)nn3CC2)cc1F
Q = O=C(/C=C/c1ccc(OC(F)(F)F)cc1)N1CC[C@@H]2CN(C(=O)NCc3nnc[nH]3)C[C@@H]2CC1
Input line: Please state the entry with greater pIC50 among P and Q . Give the label under which the chosen entry appears.
Output line: P
(P: 7.52, Q: 6.15)

----------
Field pIC50: reported value for Autotaxin (Homo sapiens, UniProt Q13822); entries drawn from several documents.
pIC50: −log10 of the molar value.
ENDPOINT: pIC50

{"COMPOUND": "O=C(c1cnc(OCC(F)(F)F)c(C(F)(F)F)c1)N1C[C@@H]2CN(C(=O)c3ccc4[nH]nnc4c3)C[C@H]2C1", "TARGET UNDER TEST": "Autotaxin (Homo sapiens, UniProt Q13822)", "pIC50": 7.85}

P = Cc1cc(OCc2n[nH]c(=O)n2C)c(-c2cc(C(=O)O)ccc2C)cc1Cl
Q = CCOc1cc(C(=O)N2C[C@@H]3[C@H]4CN(C(=O)c5ccc6[nH]nnc6c5)C[C@H]4[C@@H]3C2)nc2cc(Cl)ccc12
R = Cc1cc(OCc2n[nH]c(=O)n2C)c(C2CCOCC2)cc1Cl
S = O=C(OCC1C2CCCCC21)N1C[C@@H]2CN(C(=O)c3ccc4[nH]nnc4c3)C[C@@H]2C1 (stereo partly drawn)
T = N#Cc1ccc(C(=O)N2C[C@H]3CN(C(=O)OCc4cc(Cl)cc(Cl)c4)C[C@H]3C2)cc1
Input line: Would you mind ranking these compounds by ascending pIC50? Answer with the labels in sequence, matching the requested order.
Output line: S, T, P, R, Q
